system: biotinyl-Met-oxazolone; assay: self-aminoacylation, catalytic enhancement (BMO) (fold over background); higher = more active; k-Seq, kA / k0A0; sequences stand for … in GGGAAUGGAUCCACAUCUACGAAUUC…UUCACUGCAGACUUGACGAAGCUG
This sample holds only a part of the variants without activity.
Entries get a class label from measured self-aminoacylation. See ranges: bucket A = under 0.8, bucket B = from 0.8 up to 2, bucket C = 2 and over

# Entry sequence, Experimental target, Answer label
data = [
    ("CCACACUUCAUGCAACCGGUC [Fam1B.1 aminoacylation ribozyme variant]", "biotinyl-Met-oxazolone", "bucket B"),
    ("AUUACCCUGGUGAUCGCGUGA [Fam2.1 aminoacylation ribozyme variant]", "biotinyl-Met-oxazolone", "bucket C"),
    ("CUACUUCUAACAAUGGGUCUG [Fam1A.1 aminoacylation ribozyme variant]", "biotinyl-Met-oxazolone", "bucket A"),
    ("CUACUUCCAGCAAUCGGUCUG [Fam1A.1 aminoacylation ribozyme variant]", "biotinyl-Met-oxazolone", "bucket A"),
    ("AUUCACCUGGGUCAUCGGGUA [Fam2.2 aminoacylation ribozyme variant]", "biotinyl-Met-oxazolone", "bucket C"),
    ("AUAACCCUGGUCAUCGAGGGA [Fam2.1 aminoacylation ribozyme variant]", "biotinyl-Met-oxazolone", "bucket B"),
    ("AUUACCCUGGCCAUCGAGUGG [Fam2.1 aminoacylation ribozyme variant]", "biotinyl-Met-oxazolone", "bucket B"),
    ("AUGCACCUAGGUCAUCGAGUG [Fam2.2 aminoacylation ribozyme variant]", "biotinyl-Met-oxazolone", "bucket C"),
    ("AUACUUCAUACAAUCGGUCUG [Fam1A.1 aminoacylation ribozyme variant]", "biotinyl-Met-oxazolone", "bucket B"),
    ("AUUACCCUGAUUAUCGAGUGA [Fam2.1 aminoacylation ribozyme variant]", "biotinyl-Met-oxazolone", "bucket C"),
    ("CCACACUUCAAGGAAUAGGUC [Fam1B.1 aminoacylation ribozyme variant]", "biotinyl-Met-oxazolone", "bucket A"),
    ("CAACUUAAAACAAUCGGUCUG [Fam1A.1 aminoacylation ribozyme variant]", "biotinyl-Met-oxazolone", "bucket B"),
    ("CUACUUCAAGCCAUCGGUCUG [Fam1A.1 aminoacylation ribozyme variant]", "biotinyl-Met-oxazolone", "bucket A"),
    ("AUUCCCCUAGGUCAUCGGGAG [Fam2.2 aminoacylation ribozyme variant]", "biotinyl-Met-oxazolone", "bucket C"),
    ("CUACUUCUAACAAUCGGUCGG [Fam1A.1 aminoacylation ribozyme variant]", "biotinyl-Met-oxazolone", "bucket A"),
    ("CUACUUCAAACAAUUGAUCUG [Fam1A.1 aminoacylation ribozyme variant]", "biotinyl-Met-oxazolone", "bucket A"),
]

Hey, just so you know, these numbers are from the supplement of paper PMC9233669.
